experiment: Aqueous stability in formulation vehicle (% substrate remaining); format: physicochemical; settings: 7 days/25° C.; 0.0005% w/w (5 ppm) compound in aqueous formulation vehicle, pH 6
The entries below are paired with their reported % Substrate Remaining.
Give the number; % is assumed, so skip it.

Known % Substrate Remaining results, listed for orientation:
O=C(COc1cccc(NC(=O)c2cc(-c3cccc(F)c3)ccc2F)c1)Oc1ccc(CN2CCOCC2)cc1; 61.5
CC[N+](C)(CC)CCCOC(=O)COc1cccc(NC(=O)c2cc(-c3cccc(F)c3)ccc2F)c1; 95.5
CN(C)c1ccc(OC(=O)COc2cccc(NC(=O)c3cc(-c4cccc(F)c4)ccc3F)c2)cc1; 92

INPUT: Consider the compound shown here: CCN(CC)CCCC(C)OC(=O)COc1cccc(NC(=O)c2cc(-c3cccc(F)c3)ccc2F)c1 (stereo not shown) What is its recorded % Substrate Remaining?
OUTPUT: 101.2

###

% Substrate Remaining for assorted compounds
assay: Aqueous stability in formulation vehicle (% substrate remaining); format: physicochemical; conditions: 28 days/25° C.; 0.0005% w/w (5 ppm) compound in aqueous formulation vehicle, pH 6
Unit % implied. Number only.

Some solved cases for reference:
CN(C)c1ccc(OC(=O)COc2cccc(NC(=O)c3cc(-c4cccc(F)c4)ccc3F)c2)cc1; 78
O=C(COc1cccc(NC(=O)c2cc(-c3cccc(F)c3)ccc2F)c1)Oc1ccc(CN2CCOCC2)cc1; 12
CC[N+](C)(CC)CCCOC(=O)COc1cccc(NC(=O)c2cc(-c3cccc(F)c3)ccc2F)c1; 82.6

Below: the item to evaluate.
INPUT: Which value of % Substrate Remaining has been reported for CCN(CC)CCCC(C)OC(=O)COc1cccc(NC(=O)c2cc(-c3cccc(F)c3)ccc2F)c1 (stereo not shown) in the records?
OUTPUT: 94.4

###

assay: Aqueous stability in formulation vehicle (% substrate remaining); assay type: physicochemical; conditions: 7 days/40° C.; 0.0005% w/w (5 ppm) compound in aqueous formulation vehicle, pH 6
% Substrate Remaining values, listed per item
The reply should read as a number followed by its unit.

Look over these answered cases.
CN(C)c1ccc(OC(=O)COc2cccc(NC(=O)c3cc(-c4cccc(F)c4)ccc3F)c2)cc1; 78.8%
O=C(COc1cccc(NC(=O)c2cc(-c3cccc(F)c3)ccc2F)c1)Oc1ccc(CN2CCOCC2)cc1; 18%
CCN(CC)CCCC(C)OC(=O)COc1cccc(NC(=O)c2cc(-c3cccc(F)c3)ccc2F)c1 (stereo not shown); 92%

Moving on to another compound below.
INPUT: Name the recorded % Substrate Remaining for CC[N+](C)(CC)CCCOC(=O)COc1cccc(NC(=O)c2cc(-c3cccc(F)c3)ccc2F)c1 .
OUTPUT: 49.2%

The measured values listed here are drawn from patent US8609658B2.
